Recorded values, source ChEMBL document CHEMBL1201862.

Recorded measurements of GI50, one per entry
- Tested on: A549
- test: NCI tumour cell line growth inhibition, 48 h
Active and inactive are the calls of the source. Rule as the data show it: active = GI50 up to about 1.1 µM and inactive = higher.
outcome-measure: GI50

{"columns": ["compound", "outcome-measure", "recorded-result"],
 "data": [
  ["CC(ON(C(c1ccccc1)C(C)C)C(C)(C)C)c1ccccc1 (stereo not given)", "GI50", "29.6 µM (inactive)"],
  ["CCOC(=O)Cn1c2ccc(Br)cc2c2nc3ccccc3nc21", "GI50", "> 100 µM (inactive)"],
  ["CC(=O)Oc1c(C)c(-c2ccccc2)c(C)c(-c2ccccc2)c1C(=S)c1ccccc1", "GI50", "> 100 µM (inactive)"],
  ["COC(=O)C1=C(C)N2[C@H](C(=O)O)CO[C@@]2(C)[C@H](C(=O)OC)[C@H]1c1cccc([N+](=O)[O-])c1", "GI50", "> 100 µM (inactive)"],
  ["CC(=O)OCc1ncccc1C(OC(C)=O)OC(C)=O", "GI50", "> 100 µM (inactive)"],
  ["CC1(C)N=C(/C(Cl)=[N+](/[O-])C(=O)c2ccc(F)cc2)C(C)(C)N1O", "GI50", "45.8 µM (inactive)"],
  ["Cc1cccc2c1C(=O)OC2(c1cccc2ccccc12)c1cccc2ccccc12", "GI50", "> 100 µM (inactive)"],
  ["COc1ccc(OC)c2c(/C=C/c3ccc(N(C)C)cc3)ccnc12", "GI50", "> 10 µM (inactive)"],
  ["c1cc(C[S+]2CCCC2)ccc1C[S+]1CCCC1", "GI50", "65.5 µM (inactive)"],
  ["O=C1OC(c2ccccc2)=NC1c1ccccc1 (stereo not given)", "GI50", "> 100 µM (inactive)"]
]}

###

- Tested on: MDA-N
- test: NCI tumour cell line growth inhibition, 48 h
Calls of active or inactive are those of the source. Cut-off read from the data, not from the text of the source: active = GI50 up to about 1.1 µM and inactive = higher. Where a SMILES comes first, the peptide text is derived from it. [ ]: non-standard residue; d: D form. Aoe = N[C@@H](CCCCCC(=O)[C@@H]1CO1)C(=O)O
Classes used: active, inactive

{"columns": ["compound", "assigned-category"],
 "data": [
  ["C/C(=N\\NC(=O)c1ccccc1O)c1cccc(/C(C)=N/NC(=O)c2ccccc2O)n1", "inactive"],
  ["CC1(C)[C@@H]2C[C@H]1C(Cc1cccc(C[C@H]3c4cc(-c5ccccn5)ncc4[C@H]4C[C@@H]3C4(C)C)c1)c1cc(-c3ccccn3)ncc12 (stereo partly drawn)", "active"],
  ["CC(=O)Nc1c2sscc-2n(C)c1=O", "inactive"],
  ["O=C(Cc1ccccc1)Nn1c(-c2ccccc2)nc2ccccc2c1=O", "inactive"],
  ["O=C1N[C@@H](Cc2ccccc2)C(=O)N2CCC[C@@H]2C(=O)N[C@@H](CCCCCC(=O)[C@@H]2CO2)C(=O)N[C@H]1Cc1ccccc1 [TRAPOXIN B] (cyclo(FF[dP][Aoe]))", "active"],
  ["CC(=O)c1c2c(cc3c1CC1(C3)Cc3cc4c(c(C(C)=O)c3C1)CCCC4)CCCC2", "inactive"],
  ["Nc1ccc(Oc2ccc(C3(c4ccc(Oc5ccc(N)cc5)cc4)C4CC5C6CC7CC5C3C(C7)C6C4)cc2)cc1", "inactive"],
  ["O=c1[nH]c2ccccc2c(=O)n1/N=C\\c1ccccc1O", "inactive"]
]}

###

As shown below, each of these molecules has a reported GI50 value.
- System: OVCAR-5
- test: NCI tumour cell line growth inhibition, 48 h
Active and inactive are the calls of the source. Rule as the data show it: active = GI50 up to about 1.1 µM and inactive = higher.

{"columns": ["molecule", "target-desc", "GI50"],
 "data": [
  ["O=C(O)c1ccccc1C(=O)Nn1cnnc1", "OVCAR-5", "> 100 µM (inactive)"],
  ["CC#CC#C/C=C1/O[C@]2(CCC(OC(=O)CC(C)C)CO2)[C@@H]2O[C@H]12 (stereo partly drawn)", "OVCAR-5", "28.2 µM (inactive)"],
  ["CN(C)CCNC(=O)c1cccc2c1Oc1cccc([N+](=O)[O-])c1O2", "OVCAR-5", "20.5 µM (inactive)"],
  ["OCCOc1ccccc2cccc1-2", "OVCAR-5", "> 100 µM (inactive)"],
  ["CC(NC(=O)NC(C)(C)C)NC(=O)C(N)CC(=O)O (stereo not drawn)", "OVCAR-5", "> 100 µM (inactive)"],
  ["[O-][S+](Cc1cc2c(cc1Br)OCO2)c1ccccc1 (stereo not drawn)", "OVCAR-5", "> 100 µM (inactive)"],
  ["c1cc(C[S+]2CCCC2)ccc1C[S+]1CCCC1", "OVCAR-5", "> 100 µM (inactive)"],
  ["N#CC1=C(N)N(/N=C/c2ccccc2)C(c2ccccc2)C1(C#N)C#N (stereo not drawn)", "OVCAR-5", "18.7 µM (inactive)"],
  ["Cc1cc(-c2ccc(C(=O)O)[nH]2)on1", "OVCAR-5", "74.1 µM (inactive)"],
  ["O=C(CSC1=NCCN1)c1ccccc1", "OVCAR-5", "> 100 µM (inactive)"],
  ["COc1ccc(C2=CC(c3ccccc3)n3nnnc3N2)cc1 (stereo not drawn)", "OVCAR-5", "> 100 µM (inactive)"],
  ["CCCCCCCCCCCCCCCCC1=CC(=O)C=C(OC)C1=O", "OVCAR-5", "> 100 µM (inactive)"],
  ["CC12CCC(Br)C(C)(C)C1CC=C1C(=O)OCC1O2 (stereo not drawn)", "OVCAR-5", "18.7 µM (inactive)"],
  ["COc1cc2cc(C(=O)Nc3cc4n(n3)-c3ccccc3C4)[nH]c2c(OC)c1OC", "OVCAR-5", "8.93 µM (inactive)"],
  ["COC1=CC(=O)C2=C(C1=O)[C@H]1CC[C@]3(C)[C@@H](O)CC[C@H]3[C@@H]1CC2", "OVCAR-5", "19.2 µM (inactive)"],
  ["CCc1cc(CCC(=O)Nc2c(C)cccc2C)n[nH]1", "OVCAR-5", "> 100 µM (inactive)"],
  ["COC(=O)CN(CC(=O)NCCCBr)C1CCCCC1N(CC(=O)OC)CC(=O)OC (stereo not drawn)", "OVCAR-5", "> 100 µM (inactive)"],
  ["CCOc1ccc(OCC(=O)O)c2c1CCCC2=O", "OVCAR-5", "> 100 µM (inactive)"],
  ["O=C1[C@H](Cl)[C@H]2c3cc4ccccc4nc3Oc3ccccc3N12", "OVCAR-5", "67.3 µM (inactive)"],
  ["COc1cc2c(c(OC)c1OC)-c1ccc(SC)c(=O)cc1C(CC(=O)Oc1ccc(F)cc1)C2 (stereo not drawn)", "OVCAR-5", "39.1 µM (inactive)"],
  ["O=c1[nH]c2ccccc2c(=O)n1/N=C\\c1ccccc1O", "OVCAR-5", "> 100 µM (inactive)"],
  ["O=C(CCc1cc(O)cc(O)c1)NCCc1cc(O)cc(O)c1", "OVCAR-5", "> 100 µM (inactive)"],
  ["C/C(=N\\Nc1nc2cc(C(F)(F)F)ccc2s1)c1ccccn1", "OVCAR-5", "2.47 µM (inactive)"]
]}

###

- System: SNB-78
- test: NCI tumour cell line growth inhibition, 48 h
The source made the active and inactive calls. No stated cut-off is given here; in the data, active = GI50 up to about 1.1 µM and inactive = higher.
outcome-measure: GI50

{"columns": ["compound", "outcome-measure", "recorded-result"],
 "data": [
  ["Cc1c2ccc3ccccc3c2c[n+]2ccccc12", "GI50", "28.8 µM (inactive)"],
  ["O=C(O)c1c2c(c(C(=O)O)c3ccccc13)-c1ccccc1-2", "GI50", "71.1 µM (inactive)"],
  ["CC(C)c1ccc(O)c(=O)cc1", "GI50", "20 µM (inactive)"],
  ["CCN(CCO)CCNc1ccc(C)c2sc3ccccc3c(=O)c12", "GI50", "7.05 µM (inactive)"],
  ["CC1=C2C(O)C(C(C)CO)C(O)CC2(C)C(O)CC1 (stereo unspecified)", "GI50", "> 100 µM (inactive)"],
  ["COc1nc(NC2OCC(OC(C)=O)C(OC(C)=O)C2OC(C)=O)c(-c2csc(N)n2)c(=O)n1C (stereo unspecified)", "GI50", "> 100 µM (inactive)"]
]}

###

- Tested on: XF498
- test: NCI tumour cell line growth inhibition, 48 h
Activity calls are given as the source filed them. No stated cut-off is given here; in the data, active = GI50 up to about 1.1 µM and inactive = higher.
As shown below, each of these compounds has a reported GI50 value.

{"columns": ["compound", "GI50"],
 "data": [
  ["COc1cc2c(cc1OC)[Se]c1cc(OC)c(OC)cc1[Se]2", "> 10 µM (inactive)"],
  ["CC(C)=CCC/C(C)=C/Cc1c(O)ccc2c1[nH]c1cc(O)c(C)cc12", "24.7 µM (inactive)"],
  ["Cc1cc(NC(=O)C(=O)Cc2nc3ccccc3s2)ccc1Cl", "> 100 µM (inactive)"],
  ["COc1c(O)c2c3c(cc(C)cc3c1C(C)C)OC2", "> 100 µM (inactive)"],
  ["Cn1sc2ccccc2c1=S", "11.9 µM (inactive)"],
  ["COC(=O)c1ccccc1NCc1cc(O)ccc1O", "17.1 µM (inactive)"],
  ["S=C(Nc1ccccc1)Nc1ccccc1SC(/C=C/NNC1=NN=C(c2ccccc2)C(c2ccccc2)N1)c1ccccc1 (stereo not given)", "> 100 µM (inactive)"],
  ["Cc1c(C(=O)/C=C/c2ccccc2O)c(=O)n(-c2ccccc2)n1C", "19.1 µM (inactive)"],
  ["O/N=C1/C(=C/c2ccc(F)cc2)CCCC1C(NO)c1ccc(F)cc1 (stereo not given)", "64 µM (inactive)"],
  ["O=C(CO)C1CC2C=CC1C2 (stereo not given)", "> 100 µM (inactive)"],
  ["CCN(CC)/C(=C\\Cl)Nc1ccccn1.[O-][Cl+3]([O-])([O-])O", "> 100 µM (inactive)"],
  ["O=C1CCCn2c3ccccc3c3ccnc1c32", "25.4 µM (inactive)"],
  ["CO/C1=C\\C(C)=C\\C(C)C(O)C(C)C/C(C)=C/C=C/C(OC)C(C(C)C(O)C(C)C2(O)CC(O)C(C)C(C(C)C)O2)OC1=O (stereo not given)", "0.0242 µM (active)"],
  ["COc1nc2[nH]ccc2c(=O)n1C", "> 100 µM (inactive)"],
  ["CC(=O)OCc1ncccc1C(OC(C)=O)OC(C)=O", "> 100 µM (inactive)"]
]}
